Reported Ki by item:
# Tested On: Calcitonin gene-related peptide type 1 receptor (Homo sapiens, UniProt O60894+Q16602)
# Sequence (Q16602 whole entry, one chain of several): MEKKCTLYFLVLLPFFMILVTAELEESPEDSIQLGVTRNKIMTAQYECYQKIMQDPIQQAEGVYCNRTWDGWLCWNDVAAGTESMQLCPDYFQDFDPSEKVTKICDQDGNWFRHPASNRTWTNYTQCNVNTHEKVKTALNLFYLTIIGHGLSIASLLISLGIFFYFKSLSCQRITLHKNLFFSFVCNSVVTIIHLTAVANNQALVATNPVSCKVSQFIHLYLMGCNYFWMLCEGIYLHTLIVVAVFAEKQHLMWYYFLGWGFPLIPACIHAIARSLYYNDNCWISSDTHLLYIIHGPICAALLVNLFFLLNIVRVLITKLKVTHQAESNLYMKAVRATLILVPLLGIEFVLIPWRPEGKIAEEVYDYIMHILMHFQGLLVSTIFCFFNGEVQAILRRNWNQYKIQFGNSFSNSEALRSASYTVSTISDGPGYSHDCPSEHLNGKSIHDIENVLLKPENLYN
# Experimental Details: Antagonist activity at human CGRP receptor
Hi! Could you send only the number? It should be in nM, unit omitted.

// known answers, use as guide
O=C(C[C@@H]1Cc2cc(Cl)c3[nH]ncc3c2CN(CC(F)(F)F)C1=O)N1CCC(c2cc3cccc(F)c3[nH]c2=O)CC1: 6
CN(C)CCN1Cc2c(ccc3[nH]ncc23)C[C@@H](NC(=O)N2CCC(N3Cc4ccccc4NC3=O)CC2)C1=O: 170
O=C(C[C@@H]1Cc2cc(Cl)c3[nH]ncc3c2CN(CC(F)(F)F)C1=O)N1CCC(N2CCc3cccc(F)c3NC2=O)CC1: 9.2
O=C(N[C@@H]1Cc2ccc3[nH]ncc3c2CN(Cc2ccncc2)C1=O)N1CCC(N2Cc3ccccc3NC2=O)CC1: 22
O=C(C[C@@H]1Cc2cc(Cl)c3[nH]ncc3c2CN(CC(F)(F)F)C1=O)N1CCC(N2CCc3ccccc3NC2=O)CC1: 0.1

## Task I am curious: what Ki value has been reported for CC(C)(C)CN1Cc2c(ccc3[nH]ncc23)C[C@@H](NC(=O)N2CCC(N3Cc4ccccc4NC3=O)CC2)C1=O ?
## Result 4.9

## Task I am curious: what Ki value has been reported for O=C(N[C@@H]1Cc2ccc3[nH]ncc3c2CN(CCN2CCOCC2)C1=O)N1CCC(N2Cc3ccccc3NC2=O)CC1 ?
## Result 50

## Task I am curious: what Ki value has been reported for CC(C)(C)CN1Cc2c(cc(Cl)c3[nH]ncc23)C[C@@H](CC(=O)N2CCC(c3cc4cccc(F)c4[nH]c3=O)CC2)C1=O ?
## Result 6

----------
# Tested On: Calcitonin gene-related peptide type 1 receptor (Homo sapiens, UniProt O60894+Q16602)
# Experimental Details: Antagonist activity at human CGRP receptor
Observable: pKi
Remember the convention: pKi equals -log10 of concentration in molar.

// known answers, use as guide
CC(C)N1Cc2c(ccc3[nH]ncc23)C[C@@H](NC(=O)N2CCC(N3Cc4ccccc4NC3=O)CC2)C1=O: 7.23
O=C(C[C@@H]1Cc2cc(Cl)c3[nH]ncc3c2CN(CC(F)(F)F)C1=O)N1CCC(N2Cc3ccccc3NC2=O)CC1: 9.64
O=C(C[C@@H]1Cc2cc(Cl)c3[nH]ncc3c2CN(CC(F)(F)F)C1=O)N1CCC(n2c(=O)[nH]c3ccccc32)CC1: 8.48
CC(C)CN1Cc2c(ccc3[nH]ncc23)C[C@@H](NC(=O)N2CCC(N3Cc4ccccc4NC3=O)CC2)C1=O: 7.85
O=C(N[C@@H]1Cc2ccc3[nH]ncc3c2CN(CCc2ccncc2)C1=O)N1CCC(N2Cc3ccccc3NC2=O)CC1: 8.15

## Task I am curious: what pKi value has been reported for CN1Cc2c(ccc3[nH]ncc23)C[C@@H](NC(=O)N2CCC(N3Cc4ccccc4NC3=O)CC2)C1=O ?
## Result 6.43

## Task I am curious: what pKi value has been reported for CC(C)(C)CN1Cc2c(cc(Cl)c3[nH]ncc23)C[C@@H](CC(=O)N2CCC(N3Cc4cccc(F)c4NC3=O)CC2)C1=O ?
## Result 9.51

----------
# Experimental Details: Metabolic stability in rat liver microsomes assessed as half life
# Type: ADME, Microsome
Observable: half-life
Report as: number unit

## Task I am curious: what half-life value has been reported for O=C(C[C@@H]1Cc2cc(Cl)c3[nH]ncc3c2CN(CC(F)(F)F)C1=O)N1CCC(N2CCc3ccccc3NC2=O)CC1 ?
## Result 2.2 min
